- System: human RIP1 kinase domain (2-375) (Homo sapiens (Human), UniProt Q13546)
- Sequence (Q13546 2-375): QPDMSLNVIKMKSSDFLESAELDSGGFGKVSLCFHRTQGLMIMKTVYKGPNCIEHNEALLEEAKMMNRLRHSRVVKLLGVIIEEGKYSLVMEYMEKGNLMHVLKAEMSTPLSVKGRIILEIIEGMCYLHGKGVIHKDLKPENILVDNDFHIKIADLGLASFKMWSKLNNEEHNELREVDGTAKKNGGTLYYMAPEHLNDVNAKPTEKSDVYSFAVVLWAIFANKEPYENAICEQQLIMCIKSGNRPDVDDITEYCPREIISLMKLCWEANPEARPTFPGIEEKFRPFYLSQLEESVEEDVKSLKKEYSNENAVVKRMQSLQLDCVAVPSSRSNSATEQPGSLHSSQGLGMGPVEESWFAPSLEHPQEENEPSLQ
- Assay Method Text: biochemical
- Assay type: biochemical
- Measurement Setup: tight-binding apparent inhibition constant; human RIP1 kinase domain (2-375) 50 nM, 50 uM ATP, 2 hours; read-out: Ki
Quantity Name: Ki (nM)

- CN1C(=O)[C@H](NC(=O)c2nnc(Cc3ccccc3)[nH]2)CCn2nc([C@H]3CC3(F)F)cc21 (racemic): 41.2
- Cc1cc(F)c2c(c1)OC[C@H](NC(=O)c1nc3n(n1)[C@@H](C(F)(F)F)CCC3)C(=O)N2 (single isomer, unassigned): 210

[1] CN1C(=O)[C@@H](NC(=O)c2nc3cccc(-c4ccoc4)n3n2)CCn2nccc21
[2] CN1C(=O)[C@@H](NC(=O)c2nc3n(n2)[C@@H](c2cnn(C)c2)CCC3)COc2ccccc21 (racemic)
Q: // pick larger Ki from pair: 1 vs 2 # answer = label of selected item
Result: 1

[P] Cc1cc2n(n1)CC[C@H](NC(=O)c1ncn(CC3CCCOC3)n1)C(=O)N2C (stereo partly drawn)
[Q] Cc1cc2n(n1)CC[C@H](NC(=O)c1nnc(Cc3cccc(F)c3F)[nH]1)C(=O)N2C
[R] CC[C@@]1(C)OCc2cnc(C(=O)N[C@H]3COc4ccccc4N(C)C3=O)nc21 (mixture of isomers)
[S] CN1C(=O)[C@@H](NC(=O)c2ncn(Cc3ccc(F)c(F)c3)n2)CCn2nccc21 (racemic)
Q: Output the entries ranked by Ki from maximum down to minimum. Answer by naming the labels in the order asked.
Result: P, R, Q, S
(P: 360 nM, R: 73.8 nM, Q: 29 nM, S: 17 nM)

[I] CN1C(=O)[C@@H](NC(=O)c2nc3n(n2)[C@H](c2ccccc2)CC3)CCn2nccc21 (single isomer, unassigned) [Example 363]
[II] CN1C(=O)[C@@H](NC(=O)c2nc3n(n2)C(c2ccccc2F)CCC3)CCn2nccc21 (stereo partly drawn)
[III] Cc1ncn2c1N(C)C(=O)[C@H](NC(=O)c1ncn(Cc3cc(F)ccc3F)n1)CC2
Q: Give the ascending ranking of the items by reported Ki. Answer by naming the labels in the order asked.
Result: I, III, II

[1] Cc1cc(F)c2c(c1)OC[C@H](NC(=O)c1nc3n(n1)C(C(C)C)CC3)C(=O)N2 (stereo partly drawn)
[2] CCC[C@]1(C)OCc2cnc(C(=O)N[C@H]3COc4cc(F)cc(F)c4NC3=O)nc21
[3] Cc1cc(F)c2c(c1)OC[C@H](NC(=O)c1nc3n(n1)[C@H](C(F)(F)F)CC3)C(=O)N2
Q: Give the ascending ranking of the items by reported Ki. Answer by naming the labels in the order asked.
Result: 3, 1, 2
(3: 4.91 nM, 1: 20 nM, 2: 180 nM)

====

- System: human RIP1 kinase domain (2-375) (Homo sapiens (Human))
- Assay Method Text: biochemical
- Format: biochemical
- Measurement Setup: tight-binding apparent inhibition constant; human RIP1 kinase domain (2-375) 50 nM, 50 uM ATP, 2 hours; read-out: Ki
Quantity Name: Ki (µM)

Consider the following illustrative entries.
• Cc1cc2n(n1)CC[C@H](NC(=O)c1nc3n(n1)CCN3c1ccccc1)C(=O)N2C = 0.13
• CN1C(=O)[C@@H](NC(=O)c2nc3n(n2)[C@H](c2ccccc2F)CC3)COc2ccccc21 = 0.057
• CN1C(=O)[C@@H](NC(=O)c2ncc3c(n2)[C@@](C)(CC(F)(F)F)OC3)COc2ccccc21 (racemic) = 0.0228
• Cc1cc2n(n1)CC[C@H](NC(=O)c1nc3n(n1)CCC3c1ccccc1)C(=O)N2C (stereo partly shown) = 0.058
• CC(C)C1CCc2nc(C(=O)N[C@H]3CCn4nccc4N(C)C3=O)nn21 (stereo partly shown) = 0.175

[A] CN1C(=O)[C@@H](NC(=O)c2ncc3cnn(-c4ccccc4)c3n2)COc2ccccc21
[B] Cc1cc2n(n1)CC[C@H](NC(=O)c1ncc3cnn(C(C)C)c3n1)C(=O)N2C
Q: // pick larger Ki from pair: A vs B # answer = label of selected item
Result: B
(B: 0.15 µM, A: 0.0035 µM)

[1] Cc1cc2n(n1)CC[C@H](NC(=O)c1ncc3cnn(C4CCCC4)c3n1)C(=O)N2C
[2] CN1C(=O)[C@@H](NC(=O)c2ncn(Cc3cccc(F)c3)n2)CCn2nc(C(F)(F)F)cc21
[3] Cc1cc2n(n1)CC[C@H](NC(=O)c1ncc3c(n1)C1(CCOC1)OC3)C(=O)N2C (stereo partly shown)
[4] CN1C(=O)[C@@H](NC(=O)c2nc3cccc(-c4ccccc4)n3n2)COc2ccccc21
[5] Cc1cn2c(n1)N(C)C(=O)[C@H](NC(=O)c1ncn(Cc3ccccc3F)n1)CC2
Q: Give the ascending ranking of the items by reported Ki. Answer by naming the labels in the order asked.
Result: 4, 2, 5, 1, 3
(4: 0.0043 µM, 2: 0.023 µM, 5: 0.035 µM, 1: 0.068 µM, 3: 0.96 µM)

[P] CN1C(=O)[C@@H](NC(=O)c2ncc3c(n2)[C@]2(CCOC2)OC3)COc2ccccc21 (racemic)
[Q] CN1C(=O)[C@@H](NC(=O)c2ncn(Cc3ccc(F)cc3)n2)CCn2nc(C3CC3)cc21 (stereo in doubt)
Q: Between item P and item Q , which reported Ki is smaller? # answer = label of selected item
Result: Q
(Q: 0.0237 µM, P: 0.172 µM)
